So I've got a bunch of molecules here, and I need their growth inhibition values.
system: DIPGX9 (diffuse intrinsic pontine glioma line); assay: growth inhibition (% activity, log2 RLU normalised to DMSO / staurosporine); higher = more growth inhibition; details: 33 µM
Write down the numeric answer in % and omit the unit.

Sample COc1cc2c(cc1OC)[C@@]13CCN4CC5=CCO[C@H]6CC(=O)N2[C@H]1[C@H]6[C@H]5C[C@H]43 — what was its growth inhibition?
0.679

Consider the molecule C=C(C)[C@@H]1[C@H]2OC(=O)[C@@H]1[C@]1(O)C[C@H]3O[C@]34C(=O)O[C@H]2[C@]14C and give its measured growth inhibition.
0.386

What measured growth inhibition goes with C[C@]12CC[C@H](O)CC1=CC[C@@H]1[C@@H]2CC[C@]2(C)C(=O)CC[C@@H]12 ?
1.17

// query growth inhibition value for entry CC(=O)O[C@H]1C[C@@H]2CC[C@@H]3[C@H](CC[C@@]4(C)[C@H]3C[C@H]([N+]3(C)CCCCC3)[C@@H]4OC(C)=O)[C@@]2(C)C[C@@H]1[N+]1(C)CCCCC1
0.99

Returns the measured growth inhibition for the input molecule. Input: CC(O)(CS(=O)(=O)c1ccc(F)cc1)C(=O)Nc1ccc(C#N)c(C(F)(F)F)c1 (stereo not drawn)
0.462

Suppose we examine the molecule CN1[C@@H]2C[C@@H](OC(=O)[C@H](CO)c3ccccc3)C[C@H]1[C@@H]1O[C@@H]12 ; what growth inhibition value has been reported?
-2.82

Which measured growth inhibition value corresponds to O=c1[nH]c2ccccc2n1CCCN1CCC(n2c(=O)[nH]c3cc(Cl)ccc32)CC1 ?
-0.635

// growth inhibition lookup, key: O=C(O[C@H]1C[C@H]2CC[C@@H](C1)[N+]21CCCC1)C(O)(c1ccccc1)c1ccccc1
-3.62
